target: Cholinesterase (Homo sapiens, UniProt P06276); experiment: Inhibition of BChE in human serum assessed as hydrolysis of butyrylthiocholine by Ellman's method
Sequence (P06276 whole entry): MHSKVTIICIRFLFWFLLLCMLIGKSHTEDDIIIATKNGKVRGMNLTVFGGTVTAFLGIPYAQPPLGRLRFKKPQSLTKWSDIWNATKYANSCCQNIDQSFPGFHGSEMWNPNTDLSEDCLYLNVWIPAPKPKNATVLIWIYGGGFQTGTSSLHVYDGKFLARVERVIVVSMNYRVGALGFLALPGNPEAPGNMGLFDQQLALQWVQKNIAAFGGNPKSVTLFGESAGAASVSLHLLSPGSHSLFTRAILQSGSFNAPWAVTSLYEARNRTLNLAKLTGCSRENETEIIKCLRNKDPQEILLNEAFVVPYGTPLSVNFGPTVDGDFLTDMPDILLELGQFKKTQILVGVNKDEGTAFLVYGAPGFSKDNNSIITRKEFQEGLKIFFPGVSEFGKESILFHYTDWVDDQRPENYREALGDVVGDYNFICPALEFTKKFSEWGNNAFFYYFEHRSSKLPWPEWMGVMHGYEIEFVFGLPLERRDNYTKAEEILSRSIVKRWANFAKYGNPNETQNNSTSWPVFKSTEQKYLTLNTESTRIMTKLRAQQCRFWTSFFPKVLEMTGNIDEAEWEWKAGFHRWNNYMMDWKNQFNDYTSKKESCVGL
Property Label: pIC50
A value of pIC50 is the negative decimal logarithm of a concentration given in moles per litre.

Worked examples, 2 molecules total:
[
  {
    "Input Smiles": "CO[C@H]1O[C@@H]([C@@H](N=[N+]=[N-])C(=O)OCc2ccccc2)[C@@H](OCc2ccccc2)[C@@]2(OCc3ccccc3)[C@@H](OCc3ccccc3)CO[C@@H]12",
    "pIC50": 4.87
  },
  {
    "Input Smiles": "CC(=O)Nc1nc(Cl)c2c(ncn2[C@@H]2O[C@@H]([C@@H](N=[N+]=[N-])C(=O)OCc3ccccc3)[C@@H](OCc3ccccc3)[C@@]3(OCc4ccccc4)[C@@H](OCc4ccccc4)CO[C@@H]23)n1",
    "pIC50": 6.85
  }
]

// next entry
Prompt: Name the recorded pIC50 for CC(=O)Nc1nc(Cl)c2c(ncn2[C@@H]2O[C@H](COC(C)=O)[C@@H](OCc3ccccc3)[C@@]3(OCc4ccccc4)[C@@H](OCc4ccccc4)CO[C@@H]23)n1 .
Completion: 6.12

---

Listed here are compounds together with their documented inhibition.
biological target: Cholinesterase (Homo sapiens); assay: Inhibition of BChE in human serum assessed as hydrolysis of butyrylthiocholine at 1 ug/mL by Ellman's method; assay type: cell-free
Could you give me the number in %? Just the number is fine.

Consider the reported inhibition for these compounds:
[
  {
    "Input Smiles": "CCN(C)C(=O)Oc1cccc([C@H](C)N(C)C)c1",
    "Unit Text": "%",
    "Readout Value": 100
  },
  {
    "Input Smiles": "C=C[C@H](O)[C@@H]1O[C@H](OC)[C@@H]2OC[C@H](OCc3ccccc3)[C@]2(OCc2ccccc2)[C@@H]1OCc1ccccc1",
    "Unit Text": "%",
    "Readout Value": 4
  },
  {
    "Input Smiles": "CC(=O)Nc1nc(Cl)c2c(ncn2[C@@H]2O[C@@H]([C@@H](N=[N+]=[N-])C(=O)OCc3ccccc3)[C@@H](OCc3ccccc3)[C@@]3(OCc4ccccc4)[C@@H](OCc4ccccc4)CO[C@@H]23)n1",
    "Unit Text": "%",
    "Readout Value": 77
  },
  {
    "Input Smiles": "CC(=O)Nc1nc(Cl)c2c(ncn2[C@@H]2O[C@H](COC(C)=O)[C@@H](OCc3ccccc3)[C@@]3(OCc4ccccc4)[C@@H](OCc4ccccc4)CO[C@@H]23)n1",
    "Unit Text": "%",
    "Readout Value": 70
  },
  {
    "Input Smiles": "CO[C@H]1O[C@@H]([C@H](N=[N+]=[N-])C(=O)OCc2ccccc2)[C@@H](OCc2ccccc2)[C@@]2(OCc3ccccc3)[C@@H](OCc3ccccc3)CO[C@@H]12",
    "Unit Text": "%",
    "Readout Value": 36
  },
  {
    "Input Smiles": "CO[C@H]1O[C@@H]([C@@H](O)C(=O)OCc2ccccc2)[C@@H](OCc2ccccc2)[C@@]2(OCc3ccccc3)[C@@H](OCc3ccccc3)CO[C@@H]12",
    "Unit Text": "%",
    "Readout Value": 7
  }
]

Prompt: Find the measured inhibition: item CO[C@H]1O[C@@H]([C@@H](N=[N+]=[N-])C(=O)OCc2ccccc2)[C@@H](OCc2ccccc2)[C@@]2(OCc3ccccc3)[C@@H](OCc3ccccc3)CO[C@@H]12 , target or system Cholinesterase (Homo sapiens).
Completion: 14

Prompt: And what about the compound CC(=O)Nc1nc(Cl)c2c(ncn2[C@@H]2O[C@@H]([C@H](N=[N+]=[N-])C(=O)OCc3ccccc3)[C@@H](OCc3ccccc3)[C@@]3(OCc4ccccc4)[C@@H](OCc4ccccc4)CO[C@@H]23)n1 ?
Completion: 9
